experimental_target: Carbonic anhydrase 2 (Homo sapiens) (UniProt P00918)
assay_protocol: CAII small-molecule binders, profiling panel, biochemical, small-molecule microarray, Alexa647-labelled CAII (AID 1122)
particulars: CAII-A647 binding fluorescence, higher = more signal
property: composite z-score
Could you keep your reply to the number by itself?

Before answering, review these 5 worked examples.
COc1ccc([Si](C)(C)[C@@H]2[C@@H](CCO)O[C@]3(C(=O)N(Cc4ccccc4)c4ccc(N5C(=O)c6ccccc6Oc6ccccc65)cc43)[C@H]2C)cc1	-0.0035
COc1cc(OC)c(C(O)C2C=CC3C(=O)N(c4ccccc4)C(=O)C3N2Nc2ccccc2F)cc1Br (centres undefined)	0.693
CC(C)C[C@@H]1NC(=O)[C@@H]2C[C@H](C(=O)NCCCC[N+](C)(C)C)[C@H](c3ccc(O)cc3)N2C1=O	0.705
CC(C)C(=C=CC[C@@H](O)c1ccc(OCCO)cc1)CCO	0.601
CCOC(=O)C[C@H]1[C@H](OC(=O)c2ccc(C(=O)c3ccccc3)cc2)[C@@H](NC(=O)c2ccc3ccccc3c2)c2cc(OCCCO)ccc2N1C(=O)c1ccc2ccccc2n1	0.342

Incoming: Consider the molecule shown here: COCCn1c(C(=O)N2CCCC2)cc2c1C[C@H]1CN(C(=O)c3ccccc3)[C@@](Cc3ccccc3)(C(=O)OC)[C@@H]21 What is its recorded composite z-score?
Outgoing: 0.676

Incoming: Consider the molecule shown here: CCOC(=O)C1=C[C@@H](C(C)(C)C)N(S(=O)(=O)c2ccc(C)cc2)[C@H]1c1ccccc1Cl What is its recorded composite z-score?
Outgoing: 0.223

Incoming: Consider the molecule shown here: C#CCN(C/C=C/c1ccccc1)[C@H](CO[Si](C)(C)C(C)(C)C)c1ccccc1 What is its recorded composite z-score?
Outgoing: -0.33

Incoming: Consider the molecule shown here: COCCOC(=O)N1C(=O)[C@@]2(c3cc(C#CC4(O)CCCCCC4)ccc31)[C@H](C(=O)N1CCc3cc(OC)c(OC)cc3C1)[C@H]1C(=O)O[C@H](c3ccccc3)[C@H](c3ccccc3)N1[C@@H]2c1ccc(O)cc1 What is its recorded composite z-score?
Outgoing: 0.638

Incoming: Consider the molecule shown here: NC(=O)N1C(=O)C2C(C1=O)C1C=C(CCCO)C2C(c2ccc(CN3CCCC3)cc2)N1Cc1cccc(OC(F)(F)F)c1 (centres undefined) What is its recorded composite z-score?
Outgoing: 0.203
